assayed target: T1, FabI, E. coli enoylreductase (E. coli, UniProt P0AEK4 1-262)
T1 construct: enoylreductase FabI (enoyl-ACP reductase [NADH]), E. coli; Titrated with 0.5 mM NAD+ present; also called ER; source: E. coli BL21 (DE3), purified (Ni-IMAC, Superdex 75)
T1 sequence: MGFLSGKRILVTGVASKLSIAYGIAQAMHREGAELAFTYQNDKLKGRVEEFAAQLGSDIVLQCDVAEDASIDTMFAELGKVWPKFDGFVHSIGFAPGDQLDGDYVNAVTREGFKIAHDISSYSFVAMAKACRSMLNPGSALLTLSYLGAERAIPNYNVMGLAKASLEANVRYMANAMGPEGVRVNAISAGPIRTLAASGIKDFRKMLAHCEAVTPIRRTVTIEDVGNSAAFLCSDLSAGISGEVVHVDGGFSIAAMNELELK
protocol description: NMR titration; 1H-15N HSQC of 15N, perdeuterated C8-AcpP titrated with unlabeled partner, at least five points; 37 °C; 10 mM potassium phosphate pH 7.4, 0.5 mM TCEP, 0.5 mM NAD+, 0.1% NaN3; TITAN 2D lineshape analysis, flexible stoichiometry model
condition label: both partners purified
assay endpoint: Kd (µM)

binder	assay endpoint	observed
octanoyl-AcpP (C8-AcpP), E. coli acyl carrier protein (natural protein, octanoyl pantethenamide probe loaded (stable C8 acyl analog); uniformly 15N labeled and perdeuterated, acyl carrier protein AcpP, E. coli; PDB 2FAD is heptanoyl-AcpP, used for docking only; also called 15N-C8-AcpP; source: E. coli BL21 (DE3), M9 minimal media with 15N NH4Cl and D2O, purified; made apo with P. aeruginosa ACPH, then loaded with CoaA, CoaD, CoaE and Sfp) STIEERVKKIIGEQLGVKQEEVTNNASFVEDLGADSLDTVELVMALEEEFDTEIPDEEAEKITTVQAAIDYINGHQA	Kd	1.7
